// reported IC50 for each item listed
Target: T1, biotinylated human B7-H7 protein (Acro Biosystems, B77-H82F5) (human, UniProt Q9UM44 23-344, biotinylated)
T1 construct: Bought soluble protein; also called biotin-B7H7 protein
T1 sequence (looked up): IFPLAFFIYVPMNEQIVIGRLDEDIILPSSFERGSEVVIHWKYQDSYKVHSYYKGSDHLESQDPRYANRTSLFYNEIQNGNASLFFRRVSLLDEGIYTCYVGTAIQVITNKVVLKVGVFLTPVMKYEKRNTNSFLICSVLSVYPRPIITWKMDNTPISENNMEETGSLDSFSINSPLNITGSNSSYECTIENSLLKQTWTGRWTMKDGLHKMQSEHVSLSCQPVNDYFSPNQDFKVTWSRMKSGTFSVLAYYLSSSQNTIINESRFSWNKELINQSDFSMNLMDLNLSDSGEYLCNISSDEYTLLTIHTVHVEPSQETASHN
Experiment: flow cytometry, blocking of biotinylated human B7-H7 binding to HEK-293/CD28H cells
Form entry: value (nM) — number only.

INPUT: Requested read-out: IC50. Entry: PR003265 (antibody, human IgG1, kappa, V domains shown, Human IgG1; also called 78G8B3) VH: QVQLVESGGGVVQPGRSLRLSCAASGFTFSTYGLHWVRQAPGKGLEWVAVIWYDESNEYYADSVKGRFTISRDNSKNTLYLQMNSLRAEDTALYYCARLAHDYGGTYFDYWGQGTLVTVSS VL: EIVMTQSPAILSVSPGERATLSCRASQSISYNLAWYQQKPGQAPRLLIYGASIRATGIPARFSGSGSGTDFTLTISSLQSEDFAVYYCQQYNNWPPWTFGQGTKVEIKR
OUTPUT: 1.39

INPUT: // next record PR003252 (antibody, human IgG1, kappa, V domains shown, Human IgG1; also called 53C12D4) VH: QVQLVESGGGVVQPGRSLRLSCAASGFTFSNYAMHWVRQVPGKGLEWVALIWYDGSEKYYADSVKGRFTISRDDSKNTLFLQMSSLRAEDTAVYSCVREYSSGWGYFDYWGQGTQVTVSS VL: DIQMTQSPSTLSASVGDRVTITCRASQSISSWLAWYQQKPGKAPKLLIYKASSLKSGVPSRFSGSGSGTEFTLTISSLQPDDFATYYCLQYNSYYTFGQGTKLEIKR
OUTPUT: 1.43

INPUT: // next record PR003262 (antibody, human IgG1, kappa, V domains shown, Human IgG1; also called 77D5A4) VH: QVQLVESGGGVVQPGRSLRLSCAASGFTFSRYGIHWVRQAPGKGLEWVAVIWYNGRNKYYVDSVKGRFTISRDNSKNTLYLQMNSLRAEDTAVYYCARDGGYSYGPFDYWGQGTLVTVSS VL: EIVMTQSPATLSVSPGERATLSCRASQSFSNNLAWYQQKPGQAPRLLIYGASTRATGIPARFSGSGSGTEFTLTISSLQSEDFAVYYCHQYNIWPLTFGGGTKVEIKR
OUTPUT: 3.37
